- Test system: U-87 glioblastoma cells
- testMethodNotes: In vitro antiproliferative MTT assay on U-87
- Format: cell-based, human
- setupConditions: MTT, up to 72 hours; mean of two independent measurements with three replicates each; read-out: Calculated IC50 ± SEM, U-87
measuredQuantity: IC50 (µM)
One number for each entry, in µM.

Problem: Would you mind telling me what IC50 value was observed for N.N.[Cl][Pt][Cl] [Cis, cisplatin, reference compound] ?
Result: 9.13

====

- System: U-87 cells
- testMethodNotes: Combination assay: equimolar fragment mixtures vs hybrids on U-87
- Assay type: cell-based, human
- setupConditions: U-87 cells
measuredQuantity: Hybrid vs corresponding 1:1 fragment mixture, antiproliferative activity in words

- sampleSmiles: "CCOC1(c2cc(=O)c3c(O)cc(OC(=O)CCC4=C(C(C)C)C(=O)C=C(C)C4=O)cc3o2)C=CC(=O)C=C1"
  reported: "no apparent difference"
- sampleSmiles: "CC1=CC(=O)C(C(C)C)=C(CCC(=O)Oc2cc(O)c3c(=O)cc(C4(O)C=CC(=O)C=C4)oc3c2)C1=O"
  reported: "synergism"
- sampleSmiles: "COC1(c2cc(=O)c3c(O)cc(OC(=O)CCC4=C(C(C)C)C(=O)C=C(C)C4=O)cc3o2)C=CC(=O)C=C1"
  reported: "no apparent difference"
- sampleSmiles: "COC1(c2cc(=O)c3c(O)cc(OC(=O)CCC4=C(C)C(=O)C=C(C(C)C)C4=O)cc3o2)C=CC(=O)C=C1"
  reported: "synergism"
